Reference for the values: patent US20200325187A1

# Target or system: T1, hVEGF-A (8-109) (human, UniProt P15692 214-315)
# T1 sequence (looked up): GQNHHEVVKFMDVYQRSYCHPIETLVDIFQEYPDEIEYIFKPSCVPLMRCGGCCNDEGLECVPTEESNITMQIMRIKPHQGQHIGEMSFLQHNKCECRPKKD
# Experiment description: spot phage ELISA
Readout kind: binding result

Reference set (5 entries):
>  <Binder>
GCDVMQPYWGCKQDFDCLAGCICHWYNSCGYL (designed binder) [9.63-10]

>  <Reported>
binds

$$$$
>  <Binder>
GCNIMLPFWGCGRDFECLAGCVCQYYQSCGPLI (designed binder) [9.54.90-3X83]

>  <Reported>
binds

$$$$
>  <Binder>
GCDVMQPYWGCEMDFDCLAGCVCHWYNSCGEP (designed binder) [9.63.44-16]

>  <Reported>
binds

$$$$
>  <Binder>
GCDVLQPYWGCGPDIDCLSNCICHWYNSCGRL (designed binder) [63.12.12.M5L.2x21]

>  <Reported>
binds

$$$$
>  <Binder>
GCDVMQPYWGCEMDFDCLAGCVCHWYNSCGGK (designed binder) [9.63-7]

>  <Reported>
binds

$$$$

Hey, can you go through the list below and give me binding result for every item?
1. GCDVMQPYWGCEMDFDCLAGCVCHWYNSCGDL (designed binder) [9.63-16]
2. GCDVMQPYWGCEMDFDCLAGCVCHWYNSCGSM (designed binder) [9.63-45]
3. GCDVLQPYWGCGPDIDCLSNCICHWYNSCGEQ (designed binder) [63.12.12.M5L.2x12]
4. GCNIMLPFWGCGRDFECLAGCVCQYYQSCGPLQ (designed binder) [9.54.90-3x49]
5. GCDVLQPYWGCGPDIDCLSNCICHWYNSCGDE (designed binder) [63.12.12.M5L.2x25]

[out]
1: binds; 2: binds; 3: binds; 4: binds; 5: binds

Hello, I would appreciate it if you could give binding result for each entry below.
1. GCDVMQPYWGCEMDFDCLAGCVCHWYNSCGSL (designed binder) [9.63-36]
2. GCDVMQPYWGCKQDFDCLAGCVCHWYNSCGPS (designed binder) [9.63-1]
3. GCDVLQPYWGCGPDIDCLSNCICHWYNSCGRT (designed binder) [63.12.12.M5L.2x2]
4. GCNIMLPFWGCGRDFECLAGCVCQYYQSCGPHQ (designed binder) [9.54.90-3x33]
5. GCNIMLPFWGCGRDFECLAGCVCQYYQSCGYLS (designed binder) [9.54.90-3x88]
6. GCDVMQPYWGCEMDFDCLAGCICHWYNSCGTR (designed binder) [9.63-61]
7. GCDVMQPYWGCKQDSDCLAGCICHWYNSCGTD (designed binder) [9.63-19]

[out]
["binds", "binds", "binds", "binds", "binds", "binds", "binds"]

Give measured binding result for every item shown.
1. GCDVMQPYWGCEMDFDCLAGCVCHWYNSCGEK (designed binder) [9.63-17]
2. GCNIMLPFWGCGRDFECLAGCVCQYYQSCGTFQ (designed binder) [9.54.90-3x10]
3. GCDVMQPYWGCEMDFDCLAGCICHWYNSCGRT (designed binder) [9.63.44-2-A]
4. GCDVMQPYWGCEMDFDCLAGCICHWYNSCGPT (designed binder) [9.63-30]

[out]
["binds", "binds", "binds", "binds"]

// each listed binder needs a value for binding result
1. GCNIMLPFWGCGRDFECLAGCVCQYYQSCGNYQ (designed binder) [9.54.90-3X50]
2. GCDVLQPYWGCGPDIDCLSNCICHWYNSCGPL (designed binder) [63.12.12.M5L.2x48]
3. GCDVMQPYWGCEIDFDCLAGCVCHWYNSCGQV (designed binder) [9.63.44-55]
4. GCNIMLPFWGCGRDFECLAGCVCQYYQSCGGS (designed binder) [9.54.90-2x63]
5. GCDVMQPYWGCEMDFDCLAGCVCHWYNSCGRY (designed binder) [9.63.44-82]

[out]
1. binds
2. binds
3. binds
4. binds
5. binds
